# assayed_system: T1, human prostate specific membrane antigen (PSMA), full-length, on cells (human, UniProt Q04609 1-750)
# T1 construct: also called huPSMA; human PSMA
# T1 sequence (Q04609 whole entry): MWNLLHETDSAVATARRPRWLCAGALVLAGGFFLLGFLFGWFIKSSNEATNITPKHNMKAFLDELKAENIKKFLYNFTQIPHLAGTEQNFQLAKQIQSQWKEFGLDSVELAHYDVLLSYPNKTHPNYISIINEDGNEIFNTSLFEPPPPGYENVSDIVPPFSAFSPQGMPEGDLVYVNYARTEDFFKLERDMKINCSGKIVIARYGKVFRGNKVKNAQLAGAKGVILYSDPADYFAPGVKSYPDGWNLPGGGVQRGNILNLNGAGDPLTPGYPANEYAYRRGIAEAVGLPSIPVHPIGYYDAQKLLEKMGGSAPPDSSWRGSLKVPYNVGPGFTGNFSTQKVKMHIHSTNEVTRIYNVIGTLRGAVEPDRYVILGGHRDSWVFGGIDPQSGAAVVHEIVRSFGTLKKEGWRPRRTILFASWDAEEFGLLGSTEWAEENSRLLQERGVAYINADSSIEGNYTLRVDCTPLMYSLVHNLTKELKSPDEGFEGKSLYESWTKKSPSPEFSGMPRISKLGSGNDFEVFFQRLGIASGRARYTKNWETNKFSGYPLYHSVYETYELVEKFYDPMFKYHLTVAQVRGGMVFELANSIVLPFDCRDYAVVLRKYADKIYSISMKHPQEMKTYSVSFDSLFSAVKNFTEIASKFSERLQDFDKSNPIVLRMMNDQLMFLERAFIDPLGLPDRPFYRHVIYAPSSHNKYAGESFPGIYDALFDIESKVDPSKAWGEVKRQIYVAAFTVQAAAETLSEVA
# experimental_protocol: FMAT cell binding, huPSMA CHO cells, after 7 days in human serum at 37 C

{"columns": ["binder", "measurement_units", "EC50"],
 "data": [
  ["1.16-6GS-2.1 (bispecific antibody, linker (G4S)6) EVQLLESGGGLVQPGGSLRLSCAASGFSFSSYALSWVRQAPGKGLEWVSSIGENNHTTDYADTVKGRFTISRDNSKNTLYLQMNSLRVEDTAVYYCVKDGVHWGQGTLVTVSSGGGGSGGGGSGGGGSGGGGSGGGGSGGGGSEVQLVESGGGVVQPGRSLRLSCAASGFSFSGYGMHWVRQAPGKGLEWVAYISYDGSNKYYADSVKGRFTISRDNSKNTLYLQMNSLRAEDTAVYYCAKDPAWGLRLGESSSYDFDIWGQGTMVTVSS", "nM", 0.107],
  ["1.11-6GS-2.1 (bispecific antibody, linker (G4S)6; also called 1.11-2.1) EVQLLESGGGLVQPGGSLRLSCAASGFSFSSYALSWVRQAPGKGLEWVSSIGENNDTTDYADNVKGRFTISRDNSKNTLYLQMNSLRVEDTAVYYCVKDGVHWGQGTLVTVSSGGGGSGGGGSGGGGSGGGGSGGGGSGGGGSEVQLVESGGGVVQPGRSLRLSCAASGFSFSGYGMHWVRQAPGKGLEWVAYISYDGSNKYYADSVKGRFTISRDNSKNTLYLQMNSLRAEDTAVYYCAKDPAWGLRLGESSSYDFDIWGQGTMVTVSS", "nM", 0.0865],
  ["1.16-6GS-2.17 (bispecific antibody, linker (G4S)6) EVQLLESGGGLVQPGGSLRLSCAASGFSFSSYALSWVRQAPGKGLEWVSSIGENNHTTDYADTVKGRFTISRDNSKNTLYLQMNSLRVEDTAVYYCVKDGVHWGQGTLVTVSSGGGGSGGGGSGGGGSGGGGSGGGGSGGGGSEVQLVESGGGVVQPGRSLRLSCAASGFSFSGYGMHWVRQAPGKGLEWVAYISYDASNKYYADNVKGRFTISRDNSKNTLYLQMNSLRAEDTAVYYCAKDPAWGLRLGESSSYDFDIWGQGTMVTVSS", "nM", 0.0675],
  ["1.11-6GS-2.17 (bispecific antibody, linker (G4S)6) EVQLLESGGGLVQPGGSLRLSCAASGFSFSSYALSWVRQAPGKGLEWVSSIGENNDTTDYADNVKGRFTISRDNSKNTLYLQMNSLRVEDTAVYYCVKDGVHWGQGTLVTVSSGGGGSGGGGSGGGGSGGGGSGGGGSGGGGSEVQLVESGGGVVQPGRSLRLSCAASGFSFSGYGMHWVRQAPGKGLEWVAYISYDASNKYYADNVKGRFTISRDNSKNTLYLQMNSLRAEDTAVYYCAKDPAWGLRLGESSSYDFDIWGQGTMVTVSS", "nM", 0.101]
]}
